Documented minimal effective concentration across a set of molecules
- Tested on: IL-1β
- PROTOCOL_DESCRIPTION: Whole bovine blood assay, LPS-induced IL-1β (inhibition / overstimulation)
- Assay type: cell-based
- TEST_CONTEXT: drug concentration giving overstimulation (OS) of LPS-induced IL-1β, top concentration 250 μM

COMPOUND_SMILES: CC[C@H]1OC(=O)[C@H](C)[C@@H](O[C@H]2C[C@@](C)(OC)[C@](O)(CN3CCCCC3)[C@H](C)O2)[C@H](C)[C@@H](O[C@@H]2O[C@H](C)C[C@H](N(C)S(=O)(=O)c3nccn3C)[C@H]2Oc2ccnc(F)c2)[C@](C)(O)C[C@@H](C)CN[C@H](C)[C@@H](O)[C@]1(C)O
DISPLAY_UNIT: µM
QUALIFIER_SIGN: =
minimal effective concentration: 6
//
COMPOUND_SMILES: CC[C@H]1OC(=O)[C@H](C)[C@@H](O[C@H]2C[C@@](C)(OC)[C@](O)(CNCCCNC(C)=O)[C@H](C)O2)[C@H](C)[C@@H](O[C@@H]2O[C@H](C)C[C@H](N(C)S(=O)(=O)Nc3ccc(C(F)(F)F)cc3)[C@H]2O)[C@](C)(O)C[C@@H](C)CN[C@H](C)[C@@H](O)[C@]1(C)O
DISPLAY_UNIT: µM
QUALIFIER_SIGN: =
minimal effective concentration: 14
//
COMPOUND_SMILES: CCCN([C@H]1C[C@@H](C)O[C@@H](O[C@@H]2[C@@H](C)[C@H](O[C@H]3C[C@@](C)(OC)[C@](O)(CN4CCCCC4)[C@H](C)O3)[C@@H](C)C(=O)O[C@H](CC)[C@@](C)(O)[C@H](O)[C@@H](C)NC[C@H](C)C[C@@]2(C)O)[C@@H]1O)S(=O)(=O)c1ccc(OC)cc1
DISPLAY_UNIT: µM
QUALIFIER_SIGN: >
minimal effective concentration: 250

* * *

- Test system: IL-1β
- PROTOCOL_DESCRIPTION: Whole bovine blood assay, LPS-induced IL-1β (inhibition / overstimulation)
- Type: cell-based
- TEST_CONTEXT: drug concentration giving overstimulation (OS) of LPS-induced IL-1β, top concentration 250 μM
Parameter threshold = 6 µM. Response is t when minimal effective concentration meets or exceeds it, else f.

COMPOUND: CC[C@H]1OC(=O)[C@H](C)[C@@H](O)[C@H](C)[C@@H](O[C@@H]2O[C@H](C)C[C@H](N(C)S(=O)(=O)c3cc4ccccc4o3)[C@H]2Oc2ccc(F)cc2)[C@](C)(O)C[C@@H](C)CN[C@H](C)[C@@H](O)[C@]1(C)O [Example A-24]
GROUP_LABEL: t
//
COMPOUND: CCCNC[C@]1(O)[C@H](C)O[C@@H](O[C@H]2[C@H](C)[C@@H](O[C@@H]3O[C@H](C)C[C@H](N(C)S(=O)(=O)N(C)Cc4ccccc4)[C@H]3O)[C@](C)(O)C[C@@H](C)CN[C@H](C)[C@@H](O)[C@](C)(O)[C@@H](CC)OC(=O)[C@@H]2C)C[C@@]1(C)OC [Example B-44]
GROUP_LABEL: f
//
COMPOUND: CC[C@H]1OC(=O)[C@H](C)[C@@H](O[C@H]2C[C@@](C)(OC)[C@](O)(CNCCN(C)C)[C@H](C)O2)[C@H](C)[C@@H](O[C@@H]2O[C@H](C)C[C@H](N(C)S(=O)(=O)c3ccc(Cl)cc3)[C@H]2O)[C@](C)(O)C[C@@H](C)CN[C@H](C)[C@@H](O)[C@]1(C)O [Example B-35]
GROUP_LABEL: t
//
COMPOUND: CCCNC[C@]1(O)[C@H](C)O[C@@H](O[C@H]2[C@H](C)[C@@H](O[C@@H]3O[C@H](C)C[C@H](N(Cc4ccc(OC)cc4)S(=O)(=O)c4ccc(OC)cc4)[C@H]3O)[C@](C)(O)C[C@@H](C)CN[C@H](C)[C@@H](O)[C@](C)(O)[C@@H](CC)OC(=O)[C@@H]2C)C[C@@]1(C)OC [Example B-147]
GROUP_LABEL: f
//
COMPOUND: CCCNC[C@]1(O)[C@H](C)O[C@@H](O[C@H]2[C@H](C)[C@@H](O[C@@H]3O[C@H](C)C[C@H](N(C)S(=O)(=O)c4ccc(-n5cccn5)cc4)[C@H]3O)[C@](C)(O)C[C@@H](C)CN[C@H](C)[C@@H](O)[C@](C)(O)[C@@H](CC)OC(=O)[C@@H]2C)C[C@@]1(C)OC [Example B-19]
GROUP_LABEL: t
//
COMPOUND: CCCNC[C@]1(O)[C@H](C)O[C@@H](O[C@H]2[C@H](C)[C@@H](O[C@@H]3O[C@H](C)C[C@H](N(C)S(N)(=O)=O)[C@H]3O)[C@](C)(O)C[C@@H](C)CN[C@H](C)[C@@H](O)[C@](C)(O)[C@@H](CC)OC(=O)[C@@H]2C)C[C@@]1(C)OC [Example B-140]
GROUP_LABEL: t

* * *

- Test system: IL-1β
- PROTOCOL_DESCRIPTION: Whole bovine blood assay, LPS-induced IL-1β (inhibition / overstimulation)
- Format: cell-based
- TEST_CONTEXT: drug concentration giving overstimulation (OS) of LPS-induced IL-1β, top concentration 250 μM

COMPOUND: CCCNC[C@]1(O)[C@H](C)O[C@@H](O[C@H]2[C@H](C)[C@@H](O[C@@H]3O[C@H](C)C[C@H](N(Cc4ccccc4)S(=O)(=O)c4ccccc4)[C@H]3O)[C@](C)(O)C[C@@H](C)CN[C@H](C)[C@@H](O)[C@](C)(O)[C@@H](CC)OC(=O)[C@@H]2C)C[C@@]1(C)OC [Example B-145]
STUDY_SYSTEM: IL-1β
minimal effective concentration: 2 µM

COMPOUND: CC[C@H]1OC(=O)[C@H](C)[C@@H](O[C@H]2C[C@@](C)(OC)[C@](O)(CN3CCCCC3)[C@H](C)O2)[C@H](C)[C@@H](O[C@@H]2O[C@H](C)C[C@H](N(CC(C)C)S(=O)(=O)Nc3ccc(C(F)(F)F)cc3)[C@H]2O)[C@](C)(O)C[C@@H](C)CN[C@H](C)[C@@H](O)[C@]1(C)O [Example C-44]
STUDY_SYSTEM: IL-1β
minimal effective concentration: 6 µM

COMPOUND: CC[C@H]1OC(=O)[C@H](C)[C@@H](O[C@H]2C[C@@](C)(OC)[C@](O)(CNCCC3CCOCC3)[C@H](C)O2)[C@H](C)[C@@H](O[C@@H]2O[C@H](C)C[C@H](N(C)S(=O)(=O)c3ccc(Cl)cc3)[C@H]2O)[C@](C)(O)C[C@@H](C)CN[C@H](C)[C@@H](O)[C@]1(C)O [Example B-34]
STUDY_SYSTEM: IL-1β
minimal effective concentration: 6 µM

* * *

- System: P. multocida 46572
- PROTOCOL_DESCRIPTION: In vivo mouse lung infection challenge model (murine efficacy), survival
- Set-up: species or system CD-1 female mice
- TEST_CONTEXT: P. multocida 46572 intranasal challenge; 20 mg/kg subcutaneous; harmonized relative to vehicle (−) and M9 (+) controls
MEASURE_NAME: % Survival

COMPOUND_SMILES: CC[C@H]1OC(=O)[C@H](C)[C@@H](O)[C@H](C)[C@@H](O[C@@H]2O[C@H](C)C[C@H](N(C)S(=O)(=O)c3ccccc3)[C@H]2Oc2ccc(OC)cc2)[C@](C)(O)C[C@@H](C)CN[C@H](C)[C@@H](O)[C@]1(C)O
STUDY_SYSTEM: P. multocida 46572
OBSERVED: 41%
--
COMPOUND_SMILES: CC[C@H]1OC(=O)[C@H](C)[C@@H](O)[C@H](C)[C@@H](O[C@@H]2O[C@H](C)C[C@H](N(C)S(=O)(=O)c3ccccc3)[C@H]2Oc2ccc(OC)c(OC)c2)[C@](C)(O)C[C@@H](C)CN[C@H](C)[C@@H](O)[C@]1(C)O
STUDY_SYSTEM: P. multocida 46572
OBSERVED: 20%
--
COMPOUND_SMILES: CC[C@H]1OC(=O)[C@H](C)[C@@H](O)[C@H](C)[C@@H](O[C@@H]2O[C@H](C)C[C@H](N(C)S(=O)(=O)c3ccccc3)[C@H]2Oc2ccccc2)[C@](C)(O)C[C@@H](C)CN(C)[C@H](C)[C@@H](O)[C@]1(C)O
STUDY_SYSTEM: P. multocida 46572
OBSERVED: 24%
--
COMPOUND_SMILES: CCCNC[C@]1(O)[C@H](C)O[C@@H](O[C@H]2[C@H](C)[C@@H](O[C@@H]3O[C@H](C)C[C@H](N(C)S(=O)(=O)c4ccc(Cl)cc4)[C@H]3O)[C@](C)(O)C[C@@H](C)CN[C@H](C)[C@@H](O)[C@](C)(O)[C@@H](CC)OC(=O)[C@@H]2C)C[C@@]1(C)OC
STUDY_SYSTEM: P. multocida 46572
OBSERVED: 37%

Value source: patent US20250236616A1
